Values compiled from ChEMBL document CHEMBL1201862.

Test system: OVCAR-5
PROCEDURE SUMMARY: NCI tumour cell line growth inhibition, 48 h
Calls of active or inactive are those of the source. No stated cut-off is given here; in the data, active = GI50 up to about 1.1 µM and inactive = higher.
# output must be one of yes (1) for active, no (0) for inactive

Use these answered entries as a reference point.
| COMPOUND | TEST TARGET | CLASS NAME |
| --- | --- | --- |
| Clc1ccc(C(c2ccc(Cl)cc2)c2cncnc2)cc1 | OVCAR-5 | no (0) |
| CCCCn1c(O)nc2c(N)ncnc21 | OVCAR-5 | no (0) |
| Cc1ccsc1/C=N/NC1=NCCN1 | OVCAR-5 | no (0) |

(Q) What did the test return for COc1cc2ccc3c4cc(OC)c(OCc5ccccc5)cc4cnc3c2cc1OC ?
(A) no (0)

(Q) What did the test return for COC(C(=O)C(O)C(C)O)C1CC2C=C3C=C(OC4CC(OC5CC(O)C(OC)C(C)O5)C(OC(C)=O)C(C)O4)C(C)C(O)=C3C(O)=C2C(=O)C1OC1CC(OC2CC(OC3CC(C)(O)C(OC(=O)C(C)C)C(C)O3)C(O)C(C)O2)C(O)C(C)O1 (stereo not drawn) ?
(A) yes (1)

(Q) What did the test return for CC(C)NC(=O)OCc1c2c(n(C)c1COC(=O)NC(C)C)-c1ccccc1CC2 ?
(A) no (0)
